The origin of these recorded values is patent US20250320312A1.

OD450 reference
# measuredTarget: Peptide 5: Biotin-…-[Tyr(PC)]-acid
# Sequence (peptide, as listed by the source): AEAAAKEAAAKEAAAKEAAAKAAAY
# procedureSummary: scFv ELISA
Unit OD450 implied. Number only.

Some entries whose results are on file:
# binder, OD450 (OD450)
measured = [
    ("PcOxP_DB03_D03 (scFv, V domains shown, scFv in periplasmic extract) VH: EVQLLESGGGLVQPGGSLRLSCAASGFTFSDYYMEWVRQAPGKGLEWVAASRNKANDYTTEYADSVKGRFTISRDNSKNTLYLQMNSLRAEDTAVYYCARDYYFSSYWYFDVWGQGTLVTVSS VL: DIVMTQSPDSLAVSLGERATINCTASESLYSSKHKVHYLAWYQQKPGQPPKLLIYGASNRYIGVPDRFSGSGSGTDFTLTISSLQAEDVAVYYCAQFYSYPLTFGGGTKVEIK", 1.11),
    ("PcOxP_DB03_G12 (scFv, V domains shown, scFv in periplasmic extract) VH: EVQLLESGGGLVQPGGSLRLSCAASGFTFSDYYMEWVRQAPGKGLEWVAASRNKYNDYTTEYADSVKGRFTISRDNSKNTLYLQMNSLRAEDTAVYYCARDYYGSSYWYFDVWGQGTLVTVSS VL: DIVMTQSPDSLAVSLGERATINCKSSESVYSSKHKKHYLAWYQQKPGQPPKLLIYGASNRYIGVPDRFSGSGSGTDFTLTISSLQAEDVAVYYCAQFYSYPLTFGGGTKVEIK", 1.91),
]

Now turn to the next binder.
*Q* Return value of OD450 for input PcOxP_DB03_E04 (scFv, V domains shown, scFv in periplasmic extract) VH: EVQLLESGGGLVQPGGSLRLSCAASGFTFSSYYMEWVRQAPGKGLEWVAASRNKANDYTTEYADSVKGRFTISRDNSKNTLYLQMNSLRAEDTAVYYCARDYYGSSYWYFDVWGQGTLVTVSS VL: DIVMTQSPDSLAVSLGERATINCTASESLYSSKHKVHYLAWYQQKPGQPPKLLIYGASNRYLGVPDRFSGSGSGTDFTLTISSLQAEDVAVYYCAQFYSYPLTFGGGTKVEIK , no commentary.
*A* 1.2
